tested on: MCF7 breast; assay: NCI-60 one-dose screen, 48 h; conditions: 10 µM unless noted
The panel holds about 83,000 compounds, 20% with a hit somewhere; the sample as a whole holds those more often. Activity calls are given as the source filed them. Rule for the calls: active = growth percent below 10; inactive = the rest.
Outcome codes: active, inactive

{"columns": ["COMPOUND", "TARGET_UNDER_TEST", "CATEGORY_LABEL"],
 "data": [
  ["COc1ccc(C2=NN(c3ccccc3)C(c3sc(N(CCCl)CCCl)nc3Cl)C2)cc1 (stereo unspecified)", "MCF7 breast", "inactive"],
  ["CC1(C)CC2(CC(C)(C)c3cc(O)c(O)cc32)c2cc(O)c(O)cc21", "MCF7 breast", "inactive"],
  ["NCCc1cc(O)c(O)cc1O", "MCF7 breast", "inactive"],
  ["N#C[Se]CCN1C(=O)C2C(C1=O)[C@H]1C=C[C@@H]2S1 (stereo partly specified)", "MCF7 breast", "active"],
  ["COc1ccc(OC)c(/C=C(/C)[N+](=O)[O-])c1", "MCF7 breast", "active"],
  ["C[C@]12CC[C@@H]3C4=C(CC[C@H]3[C@@H]1CC[C@@H]2O)CC(=O)CC4", "MCF7 breast", "inactive"],
  ["[O]=[Sn]([CH]1CCCCC1)[CH]1CCCCC1", "MCF7 breast", "active"],
  ["NC(=O)OCC(CO)(c1ccccc1)c1ccccc1", "MCF7 breast", "inactive"],
  ["CN(C)P1(N(C)C)=NP(N(C)C)(N(C)C)=NP(N(C)C)(N(C)C)=N1", "MCF7 breast", "inactive"],
  ["O=C(CCF)c1ccc(O)cc1", "MCF7 breast", "inactive"],
  ["CCOc1cc(C=C(C#N)C#N)cc(Br)c1O", "MCF7 breast", "inactive"],
  ["CCC[CH2][Sn]1([CH2]CCC)[O]C(=O)c2cccc([N+](=O)[O-])c2C(=O)[O]1", "MCF7 breast", "active"],
  ["CC(C)(C)[Si](C)(C)OC1[C@@H](O[Si](C)(C)C(C)(C)C)[C@@H](CNC(=O)NC(=O)CF)O[C@H]1n1cnc2c(NC(=O)Nc3ccccc3)ncnc21 (stereo partly specified)", "MCF7 breast", "inactive"],
  ["C=CC(=O)NC(O)C(Cl)(Cl)Cl (stereo unspecified)", "MCF7 breast", "inactive"],
  ["CC(C)CCC1(CCO)C(=O)NC(=S)NC1=O", "MCF7 breast", "inactive"],
  ["CC(=O)Nc1ccc(C=C2C(=O)NC(=O)NC2=O)cc1", "MCF7 breast", "inactive"]
]}
